- Measurement notes: recombinant UMI read abundance after kanamycin selection (control-corrected) (log10(CPM+1)); higher = more efficient recombination; extreme values may be limits of the assay; sequences stand for … in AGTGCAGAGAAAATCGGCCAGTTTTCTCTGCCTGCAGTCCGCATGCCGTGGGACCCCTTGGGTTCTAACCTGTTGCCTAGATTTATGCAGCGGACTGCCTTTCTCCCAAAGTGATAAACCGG…AGGTTGGTTTCACT; site = the 11-nt donor
# Lookup of reported recombinant UMI read abundance (log10) keyed by entry
Measurement name: recombinant UMI read abundance (log10)

> print(dat)
                            ordered.residues                        measurement.name  recorded.result
 1  CCCGCACCATGGACCGGTTTTCCCGGTAATCCGTATTTGCA (site CCCGCACCTTG)  recombinant UMI read abundance (log10)                0
 2  GGAAGCACATGGACCGGTTTTCCCGGTAATCCGTATTTGGG (site GGAAGCACTCC)  recombinant UMI read abundance (log10)           0.0218
 3  CGGAATACATGGACCGGTTTTCCCGGTAATCCGTATTTGTC (site CGGAATACTGA)  recombinant UMI read abundance (log10)             1.64
 4  AATTTTGCATGGACCGGTTTTCCCGGTAATCCGTATTTGGA (site AATTTTGCTTC)  recombinant UMI read abundance (log10)                1
 5  CTCCCTACATGGACCGGTTTTCCCGGTAATCCGTATTTGAA (site CTCCCTACTTT)  recombinant UMI read abundance (log10)             0.46
 6  CCTTTGGCATGGACCGGTTTTCCCGGTAATCCGTATTTGCT (site CTTTTGGCTAG)  recombinant UMI read abundance (log10)          0.00684
 7  TCCACTTCATGGACCGGTTTTCCCGGTAATCCGTATTTGAG (site TCCACTTCTCT)  recombinant UMI read abundance (log10)           0.0133
 8  TTCCTGTCATGGACCGGTTTTCCCGGTAATCCGTATTTGAA (site TTCCTGTCTTT)  recombinant UMI read abundance (log10)           0.0685
 9  GACAAACCATGGACCGGTTTTCCCGGTAATCCGTATTTGGG (site GACAAACCTTC)  recombinant UMI read abundance (log10)                0
10  ATAAGGCCATGGACCGGTTTTCCCGGTAATCCGTATTTGAC (site TTAAGGCCTGT)  recombinant UMI read abundance (log10)                0
11  CAAGCAGCATGGACCGGTTTTCCCGGTAATCCGTATTTGCA (site CAAGCAGCTTG)  recombinant UMI read abundance (log10)             2.81
12  CTATGCTCATGGACCGGTTTTCCCGGTAATCCGTATTTGAA (site CAATGCTCTTT)  recombinant UMI read abundance (log10)            0.941
13  GTCGTTCCATGGACCGGTTTTCCCGGTAATCCGTATTTGGT (site GTGGTTCCTAC)  recombinant UMI read abundance (log10)           0.0048
14  CTAGAATCATGGACCGGTTTTCCCGGTAATCCGTATTTGAC (site CTAGCATCTGT)  recombinant UMI read abundance (log10)                0
15  TACAATACATGGACCGGTTTTCCCGGTAATCCGTATTTGCA (site TACAATACTTG)  recombinant UMI read abundance (log10)             1.18
16  TAGCTAGCATGGACCGGTTTTCCCGGTAATCCGTATTTGAA (site TTGCTAGCTTT)  recombinant UMI read abundance (log10)          0.00459
17  CTCTACACATGGACCGGTTTTCCCGGTAATCCGTATTTGCT (site CTCGACACTAG)  recombinant UMI read abundance (log10)            0.288
18  GGTCAGTCATGGACCGGTTTTCCCGGTAATCCGTATTTGGA (site GGTCAGTCTTC)  recombinant UMI read abundance (log10)            0.503
19  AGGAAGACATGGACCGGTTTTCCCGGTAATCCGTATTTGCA (site AGGAAGACTTT)  recombinant UMI read abundance (log10)             2.15
20  CTATGCTCATGGACCGGTTTTCCCGGTAATCCGTATTTGAA (site CCATGCTCTTT)  recombinant UMI read abundance (log10)            0.497
21  ACTAGACCATGGACCGGTTTTCCCGGTAATCCGTATTTGAG (site ACTAGAACTCT)  recombinant UMI read abundance (log10)            0.103
22  CTACTAACATGGACCGGTTTTCCCGGTAATCCGTATTTGCA (site CTACTAACTTA)  recombinant UMI read abundance (log10)              1.4
23  AAGCGTCCATGGACCGGTTTTCCCGGTAATCCGTATTTGAT (site AAACGTCCTAT)  recombinant UMI read abundance (log10)            0.245
24  GTGCATGCATGGACCGGTTTTCCCGGTAATCCGTATTTGCT (site GTGCATGCTAA)  recombinant UMI read abundance (log10)          0.00274
25  GGTCCGTCATGGACCGGTTTTCCCGGTAATCCGTATTTGTT (site GGTACGTCTAA)  recombinant UMI read abundance (log10)          0.00692
26  GGGGGACCATGGACCGGTTTTCCCGGTAATCCGTATTTGCA (site GGGGGACCTTG)  recombinant UMI read abundance (log10)                0
27  CAGTCGACATGGACCGGTTTTCCCGGTAATCCGTATTTGGA (site CAGTCGACTGC)  recombinant UMI read abundance (log10)          0.00544
28  GTTAAATCATGGACCGGTTTTCCCGGTAATCCGTATTTGAA (site GTTAAATCTTT)  recombinant UMI read abundance (log10)             1.62
29  AGTGTATCATGGACCGGTTTTCCCGGTAATCCGTATTTGCA (site AGTGTATCTTG)  recombinant UMI read abundance (log10)             2.25
30  GTAGGCACATGGACCGGTTTTCCCGGTAATCCGTATTTGAC (site GTAGGGACTGT)  recombinant UMI read abundance (log10)                0
31  CGTAACTCATGGACCGGTTTTCCCGGTAATCCGTATTTGTA (site CGTAACTCTTA)  recombinant UMI read abundance (log10)              2.2
32  GTTGCGTCATGGACCGGTTTTCCCGGTAATCCGTATTTGGC (site GTTGCGTCTGC)  recombinant UMI read abundance (log10)             2.41
33  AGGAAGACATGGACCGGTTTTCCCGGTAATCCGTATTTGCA (site ATGAAGACTTG)  recombinant UMI read abundance (log10)             1.43
34  TAAATTTCATGGACCGGTTTTCCCGGTAATCCGTATTTGCC (site TAAATTTCTGG)  recombinant UMI read abundance (log10)                0
35  CCCCACACATGGACCGGTTTTCCCGGTAATCCGTATTTGGA (site CCCCACACTTG)  recombinant UMI read abundance (log10)                0
36  GCTTATCCATGGACCGGTTTTCCCGGTAATCCGTATTTGCT (site GTTTATCCTAG)  recombinant UMI read abundance (log10)                0

* * *

- Measurement notes: recombinant barcode read abundance after kanamycin selection (control-corrected) (log10(CPM+1)); higher = more efficient recombination; sequences stand for … in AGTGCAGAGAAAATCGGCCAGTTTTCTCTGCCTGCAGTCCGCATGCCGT…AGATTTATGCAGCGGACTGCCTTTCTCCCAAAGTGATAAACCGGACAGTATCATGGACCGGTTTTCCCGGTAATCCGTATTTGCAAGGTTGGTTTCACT; site = the 11-nt target
Measurement name: recombinant barcode read abundance (log10)

> print(dat)
                            ordered.residues  recorded.result
 1  GCAATATCTTGGGTTCTAACCTGTTGCCT (site GCAATATCTAG)             1.26
 2  GCTTGTTCTTGGGTTCTAACCTGTTGCCT (site TCTTGTTCTAG)             0.11
 3  ATTCCATCTTGGGTTCTAACCTGTTGCCT (site ATGCCATCTAG)             0.12
 4  TGGTATTCTTGGGTTCTAACCTGTTGCCT (site TGGTATTCTAG)            0.373
 5  TAGGTATCTTGGGTTCTAACCTGTTGCAG (site TAGGTATCTCT)             2.01
 6  ACTGATACTTGGGTTCTAACCTGTTGCCT (site ACTGATACTAG)             1.84
 7  GCTTGAGCTTGGGTTCTAACCTGTTGCCT (site GCTTGAGCTAG)            0.589
 8  CACACTACTTGGGTTCTAACCTGTTGCTG (site GGTGAGCCTAC)             0.24
 9  CTAACCTCTTGGGTTCTAACCTGTTGCTC (site CTAACCTCTGA)             1.66
10  AGTAGGACTTGGGTTCTAACCTGTTGCCT (site TGTAGGACTAG)            0.213
